Biological target: Purified cathepsin L (Homo sapiens)
Construct: purchased Biomol, Plymouth Meeting, Pa
Sequence (P07711 114-333, species assumed): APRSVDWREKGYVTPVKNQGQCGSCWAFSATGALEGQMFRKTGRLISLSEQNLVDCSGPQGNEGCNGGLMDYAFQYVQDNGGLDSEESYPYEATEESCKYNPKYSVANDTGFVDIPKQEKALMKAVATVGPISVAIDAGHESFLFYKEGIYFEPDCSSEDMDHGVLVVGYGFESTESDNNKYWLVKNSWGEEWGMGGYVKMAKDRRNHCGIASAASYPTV
Assay: Cathepsin L activity, fluorogenic substrate (CV-Cathepsin L Detection Kit)
Assay type: biochemical
Conditions: inhibitor 10 μM, 200 ng cathepsin L; positive control 4e+5 AU, negative control 0.75e+5 AU
Peptide text beside a SMILES is read from it. * marks the point of attachment. Cbz = O=C(OCc1ccccc1)*; CHN2 = [N-]=[N+]=C*; tBu = CC(C)(C)*
Property Measured: cathepsin L activity (arbitrary units) in presence of inhibitor
Lab note: write values as number then unit, every time.

molecule CC(C)(C)Oc1ccc(C[C@H](NC(=O)[C@H](Cc2ccccc2)NC(=O)OCc2ccccc2)C(=O)C=[N+]=[N-])cc1 [cathepsin L inhibitor, Z-Phe-Tyr(t-Bu)-diazomethylketone] (Cbz-Phe-Tyr(tBu)-CHN2) , cathepsin L activity (arbitrary units) in presence of inhibitor observed: 1e+5 AU

The measured cathepsin L activity (arbitrary units) in presence of inhibitor associated with CC(=O)N[C@@H](CSC(=O)[C@]1([C@@H](O)C(C)C)NC(=O)[C@H](C)[C@@H]1O)C(=O)O reads 4.25e+5 AU

For reference, reported cathepsin L activity (arbitrary units) in presence of inhibitor for CC(C)CC(NC(=O)C(Cc1ccccc1)NC(=O)OCc1ccccc1)C(=O)C=O.O (centres unmarked) stands at 3e+5 AU

Reported cathepsin L activity (arbitrary units) in presence of inhibitor ( CC(C)C[C@H](NC(=O)OCc1ccccc1)C(=O)NCC(=O)CNC(=O)[C@H](CC(C)C)NC(=O)OCc1ccccc1 ) = 1e+5 AU

Field cathepsin L activity (arbitrary units) in presence of inhibitor (entry CCCNC(=O)[C@H]1O[C@@H]1C(=O)N[C@H](C(=O)N1CCC[C@H]1C(=O)O)[C@@H](C)CC (relative stereo) ) reads 3.5e+5 AU
